The reported measurements were obtained from patent US9359338B2.

biological target: KDR kinase (790-1356 AA) (Homo sapiens (Human), UniProt P35968)
Sequence (P35968 790-1356): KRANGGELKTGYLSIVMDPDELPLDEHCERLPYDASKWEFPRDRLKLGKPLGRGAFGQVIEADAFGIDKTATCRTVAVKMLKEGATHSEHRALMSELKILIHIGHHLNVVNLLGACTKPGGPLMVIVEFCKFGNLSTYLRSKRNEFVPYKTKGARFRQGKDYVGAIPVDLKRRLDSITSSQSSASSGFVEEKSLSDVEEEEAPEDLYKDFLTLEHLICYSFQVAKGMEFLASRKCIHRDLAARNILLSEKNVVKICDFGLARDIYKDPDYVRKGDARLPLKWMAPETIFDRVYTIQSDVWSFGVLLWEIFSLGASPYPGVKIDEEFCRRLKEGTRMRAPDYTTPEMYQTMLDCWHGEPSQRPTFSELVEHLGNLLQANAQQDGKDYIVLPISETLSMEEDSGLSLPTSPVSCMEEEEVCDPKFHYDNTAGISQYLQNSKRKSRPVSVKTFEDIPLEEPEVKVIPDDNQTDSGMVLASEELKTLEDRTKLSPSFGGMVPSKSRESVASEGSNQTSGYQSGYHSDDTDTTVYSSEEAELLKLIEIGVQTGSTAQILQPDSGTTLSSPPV
Readout Type: IC50 (nM)

Would you please look over these solved cases?
# Compound, IC50 / nM
data = [
    ("CC(N)c1cc(NC(=O)Nc2ccc(Oc3ccnc(NC(=O)C4CC4)c3)c(F)c2)cc(C(F)(F)F)c1 (stereo not shown)", 15.7),
    ("O=C(Nc1ccc(Oc2ccnc(NC(=O)C3CC3)c2)c(F)c1)Nc1cc(C(F)(F)F)ccc1Cl", 5.9),
    ("CN(c1ccnc(NC(=O)C2CC2)c1)c1ccc(NC(=O)Nc2cccc(C(F)(F)F)c2)c(F)c1", 16.2),
]

[I] O=C(Nc1cc(N2CCC(O)CC2)cc(C(F)(F)F)c1)Nc1ccc(Oc2ccnc(NC(=O)C3CC3)c2)c(F)c1
[II] CN1CCC(C(=O)Nc2cc(NC(=O)Nc3ccc(Oc4ccnc(NC(=O)C5CC5)c4)c(F)c3)cc(C(F)(F)F)c2)CC1
[III] O=C(Nc1ccc(Cl)c(C(F)(F)F)c1)Nc1ccc(Oc2ccnc(NC(=O)C3CC3)c2)cn1
Query: Hey, quick one: sort these by IC50, low to high? A ranking is expressed here by listing the labels in the requested order.
Response: I, III, II
(I: 5.2 nM, III: 7.5 nM, II: 16.7 nM)

[P] O=C(Nc1cccc(C(F)(F)F)c1)Nc1ccc(Oc2ccnc(NC(=O)C3CC3)c2)cn1
[Q] O=C(Nc1cnc(Oc2ccnc(NC(=O)C3CC3)c2)c(Cl)c1)Nc1ccc(Cl)c(C(F)(F)F)c1
[R] Cc1cc(Oc2cc(NC(=O)C3CC3)ncn2)ccc1NC(=O)Nc1cc(N2CCCC2)cc(C(F)(F)F)c1
[S] Cc1cc(NC(=O)Nc2cc(C(C)(F)F)ccc2F)ccc1Oc1ccnc(NC(=O)C2CC2)c1
Query: Hey, quick one: sort these by IC50, low to high? A ranking is expressed here by listing the labels in the requested order.
Response: P, S, R, Q
